Where these numbers come from: the nanobody polyreactivity screen of Harvey et al. (2022)

test: yeast display, Sf9 membrane polyspecificity reagent, FACS + sequencing; frameworks hold sequencing errors
QUANTITY_NAME: polyreactivity (PSR sort gate)

The cases that follow already have their polyreactivity (PSR sort gate) on record.
QVQLVESGGGLVQAGGSLRLSCAASGYTFPVYAKGWYRQASRKERELVATSTSGGSTNYADSVKGRFTISRDNAKNTVYFQMNSLKPEDTAVYYCAADRALSISLYPIASFYYWGQGTQVTVSS | low polyreactivity
QVQLVESGGGLVQAGGSLRLSCAASGRTFPYYAMGWYRQAPGKERELVAAINGRGGSTYYSDSVKGRFTISRDNAKNTVYLQMNSLKPEDTAVYYCAARYESRYSRYGYWGQGTQVTVSS | high polyreactivity
QVQLVESGGGLVQAGGRLRLSFAASGITFYVYTMGWYRQAPGKERELVPAISTTGSTNYADSVKGRFTISRDNAKNTVYLQMNSLKPEDTAVYYCNAKYYWLVFEYDYWGQGTQVTVSS | high polyreactivity
QVQLVESGGGLVQAGGSLRLSCAASGSIFSRNAMGWYRQAPGKERELVAAITGSGSSTYYADSVKGRFTISRDNAKNTVYLQMNSLKPEDSAVYYCNAARVYLSEWGQGTQVTVSS | high polyreactivity
QVQLVESGGGLVQAGGSLRLSCAASGRIFARYVMGWYRQAPGKERELVAAISRRAGNTYYADSVKGRFTISRDNAKNTVYLQMNSLKPEDTAVYYCAVRYSYYALSTSRYGYWGQGTQVTVSS | high polyreactivity
QVQLVESGGGLVQAGGSLRLSCAASGITFYDNAMGWYRQAPGKERELVAGISSGGRTYYADSVKGRFTISRDNAKNTVYLQMNSLKPEDTAVYYCNAASLVAYLARLGRDYWGQGTQVTVSS | low polyreactivity
QVQLVESGGGLVQAGGSLRLSCAASGFTFDSYAMGWYRQAPGKERELVASISSSGSTNYADSVKGRFTISRDNAKNTVYLQMNSLKPEDTAVYYCAAESRYPFIYEYWGQGTQVTVSS | low polyreactivity
QVQLEESGGGLVQAGGSLPLSCASSGRIFCVYAMGWYRQAPGKESELVATITSGGSTSYADSVKGRFTISRDNANYTVYLLMNSLKPEDTAVYYCNGPYSFFWQQMNYWGHGTQVTVSS | low polyreactivity

Problem: Fill in the blank: the reported polyreactivity (PSR sort gate) of `QVQIVESGGGLVQAGGSLRLSCAASGRTFWSYAMVWYRPAPGKEWELVATIKDSDGSTYADSVKGRFKISRDNAKNTVYLQMNSLKPEDTAVYYWIAKTRAGYYFGYGYWGQVTQVTVSS` is ____.
Result: low polyreactivity

Problem: Repeat with `QVQLVESGGGLVQAGGSLRLSCAASGFTFYLYVMGWYRQAPGTEREFVAAITGSGTSTYYADSVKGRFTISRDNAKNTVYLQMNSLKPEDTAVYYCNAKRDRYFYTVKYDYWGQGTQVTVSS`
Result: low polyreactivity

Problem: Repeat with `QVQLVESGGGLVQAGGSLRLSCADSGLTFYRYAMGWYRQAPGKERELVAAIRVSGNTYYADSVKGRFTISRDNAKNTVYLQMNSLKPEDTAVYYCAAKPYYFYGMDYWGQGTQVTVSS`
Result: high polyreactivity

* * *

experiment: yeast display, Sf9 membrane polyspecificity reagent, FACS + sequencing; frameworks hold sequencing errors
QUANTITY_NAME: polyreactivity (PSR sort gate)

QVQLVESGGGLVQAGGSLRLSCAASGFIFDVYAMGWYRQAPGKERELVAAISVSSTNYADSVKGRFTISRDNAKNTVYLQMNSLKPEDTAVYYCAADTYTYFLASYLYGQYDYWGQGTQVTVSS | low polyreactivity
QVQLVESGGGLVQAGGSLRLSCAASGFIFRYYAMGWYRQAPGKERELVAAIDYSGGSTNYADSVKGRFTISRDNAKNTVYLQMNSLKPEDTAVYYYDYWGQGTQVTVSS | low polyreactivity
QVQLVESGGGLVQAGGILRLSCAASGRIFGYNAMGWYRQAPGKERELVAAIRQRAGSTNYADSVKGRFTISRDNSKNTVYLQMKSLKPEDTAVYYCAVDGNFFGEVRPYDYWGQGSQVTVSS | low polyreactivity
QVQLVESGGGLVQAGGSLRLSCAASGRILYYYTMGWYRQAPGKEREFVAAISSRGGSTYADSVKGRFTISRDNAKNTVYLQMNSLKPEDTAVFYCNARLKPRWGGRYDYWGQGTQVTVSS | high polyreactivity
QVQLQESGGGLVQAGGSLRLSCAASGSIFYEFYMGWYRQAPGKERELVAAIANGASTYYADSVKGRFTISRDNSKNTVYLQMSSLKPEDTAVYYCAVNTTSDIDYIYWGQGTQVNVSS | low polyreactivity
QVQLVESGGGLVQAGGSLLLSCAASGRTFATNAMGWNRQAPGKERELVADISGGGSTYYADSVKGRFTISRDNAKNTVYLQMNSMKPEDTAVYYCAARDYHWFQWYDYWGQGTQVTVSS | low polyreactivity
QVQLVESGGGLVQAGGSLRLSCAASGITFTDYAMGWYRPAPGKERELVAAISSRGGSTYYADSVKGRFTISRDHAKNTVYLQMNSLKPEDTAVYYCNARFVRRGSGYDYWGQGTQVTLSS | high polyreactivity
QVQLVESGGGIVQAGGSLRLSCAASGRTFYYYAMGWYRQAPGKERELVASISWSGGSTYYADSVKGRFTISRDNAKNTVYLQMNSLKPEDTAVYYCNAQYHTYRWLYAVYLSGDYWGQGTQVTVSS | low polyreactivity
QVQLVESGGGLVQAGGSLRLSCAASGFIFQYNAMGWYRQAPGKERELVAAISKSGGRTYYADSVKGRFTISRDNPKNTVDLQMNSLKPEDTAVYYCAALYVWLWGYRFDYWGQGTQVTVSS | high polyreactivity
QVQLVESGGGLVQAGGSLRLSCAASGSIFRLYALGWYRQAPGKERELVAAISRRGGSTNYADSVKGRFTISRDNAKNTVYFQMNSLKPEDTAVYYCARDVDTHYPYAYDYWGQGTQVTVSS | high polyreactivity

Problem: Fill in the blank: the reported polyreactivity (PSR sort gate) of `QVHLVESGGGLVQAGGSLRLSCAASGSTFPANAMGRYRQAPGKERELVAAITSGGSTNYADSVKGRFTISRDNAKNTVYLQMNSLKPEDTAVYYCADESYQAHSFYVYYGYDYWGQGTQVTVSS` is ____.
Result: low polyreactivity

* * *

assay: yeast display, Sf9 membrane polyspecificity reagent, FACS + sequencing; frameworks hold sequencing errors
QUANTITY_NAME: polyreactivity (PSR sort gate)

QVQLVESGGGLVQAGGSLRLSCAASGITFDSNAMGWYRQAPGNERELVAAISSTGSTDYADSVKGRFTITRDNAKNTVYLQMNSLKPEDTAVYYCATGGRGGRRYEYWGQGTQVTVSS | low polyreactivity
QVQLVESGGGLVQAGGSLRLSCAASGRIFNYYAMGWYRQAPGKEMELVAVITYSAGRTYYADSVKGRFTISRDNAKNTVYLQMNSLKPEDTAVYYCNADGWVSVSKHYYYWGQGTQVTVSS | low polyreactivity
QVQLVESGGGLVQAGGSLRLSCDASGFIFNYYVMGWYRQAPGKERELVAAISRSGGSTYYADSVKGRFTISRDNAKNTVYLQKNSLKTEDTAVYYCAAEYGYGKRAYDSWGQGTQVTVSS | high polyreactivity
QVHLLESGGGLVQAGGSLRLSCAASGRTFYDYTMGWYRQAPGKERELVAVISKRGGSTYYADSVKGRFTISRDNAKNTVYLQMNSLKPEDTAVYYCAAKSGRNVYQKVDYWGQGTQVTVSS | high polyreactivity

Now consider a different sequence.
Problem: Fill in the blank: the reported polyreactivity (PSR sort gate) of `QVQLVESGGGLVQAGGSLRLRCAASGSTYTVYAMGWYRQAPRKDRELVAAIRDGSSTNYADSVKGRFTISRDNAKNTVYLQRNSLKPEDTAVYYCNAPYPPTGYGDDDYWGQGTQVTVSA` is ____.
Result: low polyreactivity

* * *

assay: yeast display, Sf9 membrane polyspecificity reagent, FACS + sequencing; frameworks hold sequencing errors
QUANTITY_NAME: polyreactivity (PSR sort gate)

QVQLVESGGGLVQAGGSLRLSCAASGFTFYYYAMGLYRQAPGKERELVAAITYSGGSTYYADSVKGRFTISRDNAKNTVYLQMNSLKPEDTAVYYCAAEAIPRLSWWYGVDYWGQGTQVTVSS | low polyreactivity
QVQLVESGGGLVQAGGSLRLSCAASGSTFFRYAMGWYRQAPGKEREFVAAISKRGGSTHYADSVKGRFTISRDNAKNTVYLQMNSLKPEDTAVYYCAASSFTSSYNYWGQGTQVTVSS | high polyreactivity
QVQLVESGGGLVQAGGSLRLSCAASGSTFAGNAMGWYRQAHGKERELVAALDSSTGSTYYAYSVKGRFTISRDNAKNTVYLQMNSVKPEDTAVYYWNKTSFLVKLDYWGQGTQVTVSS | low polyreactivity
QVQLVESGGGLVQAGGSLRLSCAASGFTFGYYAMGWYRQAPGKERELVAAITYDGDITYYADSVKGRFTISRDNAKNTVYLQMNSLKPEDTAVYYCNRDVLTFNYDYWGQGTQVTVSS | low polyreactivity

Now consider a different sequence.
Problem: Fill in the blank: the reported polyreactivity (PSR sort gate) of `QVQLVESGGGLVQAGGSLRLSCAAFGPIFQYYAMGSYRQAPGKERELVAAITRSGGSTYYADSVKGRFTISRDNAKNTVYLQMNSLKPEDTAVYYCAAYSRYTVREGYDYWGQGTQVTVSS` is ____.
Result: high polyreactivity
